B1: PDLIM7 (parent)
chain: AAGGVPGGGSNNGKTPVCHQCHKV

Variants of: B1
Assay: protein stability index of a GFP-peptide fusion (GPS, HEK-293T) (PSI 1-6); higher = more stable;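 further: lentivirally expressed fusions sorted by FACS into six bins by GFP to DsRed ratio, PSI derived from sequencing read proportions per bin multiplied by bin number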
Conditions: c terminus: a fixed tail appended
outcome-measure: protein stability index

| variant-designation | numeric-readout |
| --- | --- |
| A2K | 4.11 |
| S10D | 3.96 |
| G9E | 4.04 |
